These data points were gathered from patent US8778871B2.

- ASSAY SYSTEM: hOT7T175 (Homo sapiens, UniProt Q969F8, L364H)
- Construct: expressed in transfected cells
- Sequence (Q969F8 whole entry L364H): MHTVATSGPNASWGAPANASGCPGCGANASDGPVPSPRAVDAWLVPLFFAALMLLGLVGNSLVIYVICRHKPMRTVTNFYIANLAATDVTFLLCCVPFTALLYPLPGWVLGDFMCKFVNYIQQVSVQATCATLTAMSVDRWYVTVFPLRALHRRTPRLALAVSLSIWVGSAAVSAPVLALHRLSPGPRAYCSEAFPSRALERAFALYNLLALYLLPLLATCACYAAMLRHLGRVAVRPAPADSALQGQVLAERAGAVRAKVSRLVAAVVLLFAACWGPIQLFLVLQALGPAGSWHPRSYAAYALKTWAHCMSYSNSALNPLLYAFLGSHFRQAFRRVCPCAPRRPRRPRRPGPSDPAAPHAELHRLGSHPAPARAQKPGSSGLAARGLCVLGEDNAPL
- Assay type: cell-based
- CONDITIONS: hOT7T175/CHO, FLIPR, evaluation for 40 seconds after initiation of the reaction
Non-standard residues stand in square brackets, D forms with d. Arg(Me) = CNC(=N)NCCC[C@H](N)C(=O)O; azaGly = NNC(=O)O
MEASURED PARAMETER: Specific Act. (EC50/MS10 EC50)
One number for each entry.

The cases that follow already have their Specific Act. (EC50/MS10 EC50) on record.
- Cyclopropanecarbonyl-Asn-Ser-Phe-AzaGly-Leu-Arg(Me)-Trp-NH2 [Compound No. 534]: 5.6
- Ac-D-Tyr-D-Trp-Asn-Thr-Trp-AzaGly-Leu-Arg(Me)-Trp-NH2 (Ac-[dY][dW]NTW[azaGly]L[Arg(Me)]W-NH2; SMILES CNC(=N)NCCC[C@H](NC(=O)[C@H](CC(C)C)NC(=O)NNC(=O)[C@H](Cc1c[nH]c2ccccc12)NC(=O)[C@@H](NC(=O)[C@H](CC(N)=O)NC(=O)[C@@H](Cc1c[nH]c2ccccc12)NC(=O)[C@@H](Cc1ccc(O)cc1)NC(C)=O)[C@@H](C)O)C(=O)N[C@@H](Cc1c[nH]c2ccccc12)C(N)=O) [Compound No. 692]: 0.7
- 3-Phenylpropionyl-Asn-Ser-Trp-AzaGly-Leu-Arg(Me)-Trp-NH2 [Compound No. 507]: 1.7

# per-item lookup of Specific Act. (EC50/MS10 EC50); items listed below
1. D-Tyr-D-Pya(4)-Asn-Ser-Phe-AzaGly-Leu-Arg(Me)-PheΨ(CSNH)NH2 [Compound No. 548]
2. Ac-D-Tyr-D-Tyr-D-Trp-Asn-Thr-Phe-AzaGly-Leu-Arg(Me)-Trp-NH2 (Ac-[dY][dY][dW]NTF[azaGly]L[Arg(Me)]W-NH2; SMILES CNC(=N)NCCC[C@H](NC(=O)[C@H](CC(C)C)NC(=O)NNC(=O)[C@H](Cc1ccccc1)NC(=O)[C@@H](NC(=O)[C@H](CC(N)=O)NC(=O)[C@@H](Cc1c[nH]c2ccccc12)NC(=O)[C@@H](Cc1ccc(O)cc1)NC(=O)[C@@H](Cc1ccc(O)cc1)NC(C)=O)[C@@H](C)O)C(=O)N[C@@H](Cc1c[nH]c2ccccc12)C(N)=O) [Compound No. 651]
3. Me-D-Tyr-D-Trp-Asn-Thr-Phe-AzaGly-Leu-Arg(Me)-Trp-NH2 [Compound No. 570]
4. Ac-D-Tyr-D-Trp-Asn-Thr-Pya(4)-AzaGly-Leu-Arg(Me)-Trp-NH2 [Compound No. 635]
5. D-Tyr-D-Pya(4)-Asn-Ser-Cha-Ala-Leu-Arg(Me)-Trp-NH2 [Compound No. 497]
6. D-Tyr-D-Pya(4)-Asn-Hyp-Phe-AzaGly-Leu-Arg(Me)-Trp-NH2 [Compound No. 527]
7. Amidino-D-Trp-Asn-Thr-Phe-AzaGly-Leu-Arg(Me)-Trp-NH2 (Amidino-[dW]NTF[azaGly]L[Arg(Me)]W-NH2) [Compound No. 679]
8. 3-Phenylpropionyl-Asn-Ser-Cha-Gly-Leu-Arg(Me)-Trp-NH2 [Compound No. 518]

## Result
1.7
0.7
0.5
1.4
1.4
3.3
1.8
10.5

## Task Find the recorded Specific Act. (EC50/MS10 EC50) belonging to D-Trp-D-Pya(4)-Asn-Ser-Phe-AzaGly-Leu-Arg(Me)-Trp-NH2 [Compound No. 572] and report it.
## Result 0.7

---

- ASSAY SYSTEM: hOT7T175 (Homo sapiens)
- Construct: expressed in transfected cells
- PROTOCOL DETAILS: Intracellular Ca ion level-increasing activity using FLIPR (180 seconds; specific activity to Metastin (1-54))
- Assay type: cell-based
- CONDITIONS: hOT7T175/CHO, change in intracellular calcium ion level for 180 seconds, Tables 21-23
MEASURED PARAMETER: intracellular Ca ion level-increasing activity [specific activity to Metastin (1-54)]

• 3-Phenylpropionyl-Ala-Ser-Phe-AzaGly-Leu-Arg(Me)-Trp-NH2 [Compound No. 500] = 1
• D-Tyr-D-Pya(4)-Asn-Ser-Phe-AzaGly-Leu-Har-Trp-NH2 [Compound No. 481] = 5
• D-Tyr-D-Pya(4)-Asn-Val-Phe-AzaGly-Leu-Arg(Me)-Trp-NH2 [Compound No. 515] = 10
• Methylthiocarbamoyl-Sar-D-Tyr-Asn-Trp-Asn-Ser-Phe-Gly-Leu-Arg(Me)-Phe-NH2 [Compound No. 397] = 5

Items follow; give intracellular Ca ion level-increasing activity [specific activity to Metastin (1-54)] for each.
1. 4-Pyridinecarbonyl-Phe-AzaGly-Leu-Orn-Trp-NH2 [Compound No. 477]
2. 3-(3-Pyridyl)propionyl-Asn-Ser-Phe-AzaGly-Leu-Arg(Me)-Trp-NH2 [Compound No. 386]
3. D-Tyr-D-Pya(4)-Ala-Ser-Phe-AzaGly-Leu-Arg(Me)-Trp-NH2 [Compound No. 492]
4. D-Tyr-D-Pya(4)-Asn-Ser-Cha-Ala-Leu-Arg(Me)-Trp-NH2 [Compound No. 497]

## Result
1. ⅕
2. 7
3. 5
4. 2

---

- ASSAY SYSTEM: hOT7T175 (Homo sapiens, UniProt Q969F8, L364H)
- Construct: expressed in transfected cells
- Type: cell-based
- CONDITIONS: hOT7T175/CHO, FLIPR, evaluation for 40 seconds after initiation of the reaction
Non-standard residues stand in square brackets, D forms with d. Residues, ends and D or L forms follow the SMILES beside them. *: point of attachment. Diphenylacetyl = O=C(C(c1ccccc1)c1ccccc1)*; Arg(Me) = CNC(=N)NCCC[C@H](N)C(=O)O; azaGly = NNC(=O)O
Please respond with reported Specific Act. (EC50/MS10 EC50) for every item in the list.
One number for each entry.

Before answering, review these 2 worked examples.
- CNC(=N)NCCC[C@H](NC(=O)[C@H](CC(C)C)NC(=O)NNC(=O)[C@H](Cc1ccccc1)NC(=O)[C@H](CO)NC(=O)[C@H](CC(N)=O)NC(=O)C(c1ccccc1)c1ccccc1)C(=O)N[C@@H](Cc1ccccc1)C(N)=O [Compound No. 268] (Diphenylacetyl-NSF[azaGly]L[Arg(Me)]F-NH2): 4.5
- CNC(=N)NCCC[C@H](NC(=O)[C@H](CC(C)C)NC(=O)NNC(=O)[C@H](Cc1ccccc1)NC(=O)[C@H](CO)NC(=O)[C@H](CC(N)=O)NC(=O)[C@@H](NC(=O)[C@H](N)Cc1ccc(O)cc1)[C@@H](C)O)C(=O)N[C@@H](Cc1ccccc1)C(N)=O [Compound No. 241] (H-[dY]TNSF[azaGly]L[Arg(Me)]F-NH2): 5.3

## Task Fill blank: measured Specific Act. (EC50/MS10 EC50) of the compound CNC(=N)NCCC[C@H](NC(=O)[C@H](CC(C)C)NC(=O)NNC(=O)[C@H](Cc1ccccc1)NC(=O)[C@H](CO)NC(=O)[C@H](CC(N)=O)NC(=O)[C@@H](Cc1c[nH]c2ccccc12)NC(=O)[C@H](N)Cc1ccc(O)cc1)C(=O)N[C@@H](Cc1ccccc1)C(N)=O [Compound No. 242] (H-[dY][dW]NSF[azaGly]L[Arg(Me)]F-NH2) is ____.
## Result 1.4

---

- ASSAY SYSTEM: hOT7T175 (Homo sapiens, UniProt Q969F8, L364H)
- Construct: expressed in transfected cells
- Type: cell-based
- CONDITIONS: hOT7T175/CHO, FLIPR, evaluation for 40 seconds after initiation of the reaction
Starred links: 1 amine or outer side, 2 acyl side, 3 side chain; linkers in the order of their positions; H or OH if unused. Non-standard residues stand in square brackets, D forms with d. Residues, ends and D or L forms follow the SMILES beside them. *: point of attachment. Propanoyl(3-indol-3-yl) = O=C(CCc1c[nH]c2ccccc12)*; 2Nal = N[C@@H](Cc1ccc2ccccc2c1)C(=O)O; Arg(Me) = CNC(=N)NCCC[C@H](N)C(=O)O; Tryptamide = c1ccc2c(CCN*)c[nH]c2c1; Hydrocinnamoyl = O=C(CCc1ccccc1)*; X4 = NC(=S)[C@H](Cc1ccccc1)N*; X7 = O=C(c1c[nH]c2ccccc12)*; CO = O=C([*:1])[*:2]; azaGly = NNC(=O)O
Binary classification by Specific Act. (EC50/MS10 EC50), with 5 as an inclusive lower bound for t; all other cases are f.

# count of solved cases: 3
* CC(C)C[C@H](NC(=O)CNC(=O)[C@H](Cc1ccc2ccccc2c1)NC(=O)[C@H](CO)NC(=O)[C@H](CC(N)=O)NC(=O)[C@H](Cc1c[nH]c2ccccc12)NC(=O)[C@H](CC(N)=O)NC(=O)[C@@H](N)Cc1ccc(O)cc1)C(=O)N[C@@H](CCCNC(=N)N)C(=O)N[C@@H](Cc1ccccc1)C(N)=O [Compound No. 152] (H-YNWNS[2Nal]GLRF-NH2) | f
* CNC(=N)NCCC[C@H](NC(=O)[C@H](CC(C)C)NC(=O)NNC(=O)[C@H](Cc1ccccc1)NC(=O)[C@H](CO)NC(=O)[C@H](CC(N)=O)NC(=O)CCc1ccccc1)C(=O)N[C@@H](Cc1ccccc1)C(N)=O [Compound No. 269] (Hydrocinnamoyl-NSF[azaGly]L[Arg(Me)]F-NH2) | f
* CNC(=N)NCCC[C@H](NC(=O)[C@H](CC(C)C)NC(=O)NNC(=O)[C@H](Cc1ccccc1)NC(=O)[C@H](CO)NC(=O)[C@H](CC(N)=O)NC(=O)NCCc1c[nH]c2ccccc12)C(=O)N[C@@H](Cc1ccccc1)C(N)=O [Compound No. 279] ({Tryptamide-CO}-NSF[azaGly]L[Arg(Me)]F-NH2) | t

## Task Does CNC(=N)NCCC[C@H](NC(=O)[C@H](CC(C)C)NC(=O)NNC(=O)[C@H](Cc1ccccc1)NC(=O)[C@H](CO)NC(=O)[C@H](CC(N)=O)NC(=O)c1c[nH]c2ccccc12)C(=O)N[C@@H](Cc1ccccc1)C(N)=O [Compound No. 265] (X7-NSF[azaGly]L[Arg(Me)]F-NH2) have a reported Specific Act. (EC50/MS10 EC50) of at least 5?
## Result f

## Task Param item: CNC(=N)NCCC[C@H](NC(=O)[C@H](CC(C)C)NC(=O)CNC(=O)[C@H](Cc1ccccc1)NC(=O)[C@H](C)NC(=O)[C@H](CC(N)=O)NC(=O)[C@H](Cc1c[nH]c2ccccc12)NC(=O)[C@H](CC(N)=O)NC(=O)[C@H](N)Cc1ccc(O)cc1)C(=O)N[C@@H](Cc1ccccc1)C(N)=O [Compound No. 212] (H-[dY]NWNAFGL[Arg(Me)]F-NH2)
## Result f

## Task Note, next up: CC[C@H](C)[C@H](NC(=O)[C@H](CC(N)=O)NC(=O)[C@H](N)Cc1ccc(O)cc1)C(=O)N[C@@H](CC(N)=O)C(=O)N[C@@H](CO)C(=O)N[C@@H](Cc1ccccc1)C(=O)NCC(=O)N[C@@H](CC(C)C)C(=O)N[C@@H](CCCNC(=N)NC)C(=O)N[C@@H](Cc1ccccc1)C(N)=O [Compound No. 206] (H-[dY]NINSFGL[Arg(Me)]F-NH2)
## Result f

## Task And for CNC(=N)NCCC[C@H](NC(=O)[C@H](CC(C)C)NC(=O)NNC(=O)[C@H](Cc1ccccc1)NC(=O)[C@H](CO)NC(=O)[C@H](CC(N)=O)NC(=O)CCc1c[nH]c2ccccc12)C(=O)N[C@@H](Cc1ccccc1)C(N)=O [Compound No. 260] ({Propanoyl(3-indol-3-yl)}-NSF[azaGly]L[Arg(Me)]F-NH2) ?
## Result f

## Task And for CC(C)C[C@H](NC(=O)NNC(=O)[C@H](Cc1ccccc1)NC(=O)[C@H](CO)NC(=O)[C@H](CC(N)=O)NC(=O)[C@H](Cc1c[nH]c2ccccc12)NC(=O)[C@H](CC(N)=O)NC(=O)[C@@H](N)Cc1ccc(O)cc1)C(=O)N[C@@H](CCCNC(=N)N)C(=O)N[C@@H](Cc1ccccc1)C(N)=O ?
## Result f

## Task Same lookup for CNC(=N)NCCC[C@H](NC(=O)[C@H](CC(C)C)NC(=O)CNC(=O)[C@H](Cc1ccccc1)NC(=O)[C@H](CO)NC(=O)[C@@H](NC(=O)[C@H](Cc1c[nH]c2ccccc12)NC(=O)[C@H](CC(N)=O)NC(=O)[C@H](N)Cc1ccc(O)cc1)[C@@H](C)O)C(=O)N[C@@H](Cc1ccccc1)C(N)=O [Compound No. 208] (H-[dY]NWTSFGL[Arg(Me)]F-NH2) , please.
## Result t

## Task # repeat for CNC(=N)NCCC[C@H](NC(=O)[C@H](CC(C)C)NC(=O)NNC(=O)[C@H](Cc1ccccc1)NC(=O)[C@@H](NC(=O)[C@H](CC(N)=O)NC(=O)[C@H](Cc1c[nH]c2ccccc12)NC(=O)[C@H](CC(N)=O)NC(=O)[C@H](N)Cc1ccc(O)cc1)[C@@H](C)O)C(=O)N[C@@H](Cc1ccccc1)C(N)=O [Compound No. 297] (H-[dY]NWNTF[azaGly]L[Arg(Me)]F-NH2)
## Result t

## Task What would you report for CC(C)C[C@H](NC(=O)CNC(=O)[C@H](Cc1ccccc1)NC(=O)[C@H](CO)NC(=O)[C@H](CC(N)=O)NC(=O)[C@H](Cc1c[nH]c2ccccc12)NC(=O)[C@H](CC(N)=O)NC(=O)[C@H](N)Cc1ccc(O)cc1)C(=O)N[C@@H](CCCNC(=N)N)C(=O)N[C@@H](Cc1ccccc1)C(N)=O ?
## Result f

## Task Also CC(C)C[C@H](NC(=O)CNC(=O)[C@H](Cc1ccccc1)NC(=O)[C@H](CO)NC(=O)[C@H](CC(N)=O)NC(=O)[C@H](Cc1c[nH]c2ccccc12)NC(=O)[C@H](CC(N)=O)NC(=O)[C@@H](N)Cc1ccc(O)cc1)C(=O)N[C@@H](CCCNC(=N)N)C(=O)N[C@@H](Cc1ccccc1)C(N)=S [Compound No. 128] (H-YNWNSFGLR-X4) , if possible.
## Result f
